System: SK-OV-3 ovarian
MEASUREMENT_NOTES: NCI tumour cell line growth inhibition, 48 h; in the data active = GI50 below about 0.43 µM; inactive = the rest
Give your call using only these classes: active, inactive

Solved entries (count: 3):
INSERT INTO results (compound, assigned_label) VALUES
  ('O=[N+]([O-])c1cccc(/C=C/c2ccccn2)c1', 'inactive'),
  ('FC(F)(F)c1[nH]ncc1-c1nc2c(N3CCCCC3)cc3[nH]ncc3c2c2c1CCCC2', 'inactive'),
  ('Fc1c[c-]c(-c2ccccn2)c(F)c1.[CH3-].[Pt+2].c1ccc([PH+](c2ccccc2)c2ccccn2)cc1', 'inactive');

Field: outcome | Entry: COc1cc(/C=C/C(=O)NC[C@]2(O)CCC3C4CCc5cc(O)ccc5C4CCC32C)ccc1O (stereo not given in full)
inactive

Repeat with `CCN1/C(=C/C=C/C=C/c2sc3ccccc3[n+]2CC)Sc2ccccc21`
active

`COc1nc2c(cc1S(=O)(=O)c1ccccc1)CCc1c-2cnn1Cc1ccccc1` , same question.
inactive

Same again, this time with `O=C(Nc1ccc(Cl)cc1F)c1cc(F)ccc1O`
inactive

Next up: CC(N)(Cc1c[nH]c2ccccc12)C(=O)O (stereo not given)
inactive

Try the compound `Cc1c2cnccc2c(C)c2c1c1cc(C(=O)O)ccc1n2C`
inactive

----------
Tested on: U251 CNS
MEASUREMENT_NOTES: NCI tumour cell line growth inhibition, 48 h
EXPERIMENTAL_READOUT: TGI

INSERT INTO assay_data (compound, subject_of_test, experimental_readout, result) VALUES
  ('Brc1cccc(Nc2ncnc3sc4c(c23)CCC(Nc2cccc(Br)c2)C4)c1 (stereo unspecified)', 'U251 CNS', 'TGI', '> 100 µM'),
  ('c1ccc(CCCNc2nnnc3ccccc23)cc1', 'U251 CNS', 'TGI', '> 100 µM'),
  ('COc1ccc(C2C3=C(COC3=O)OC(C)(C)Oc3cc4c(cc32)OCO4)cc1 (stereo unspecified)', 'U251 CNS', 'TGI', '> 100 µM'),
  ('CC(=O)Nc1ccc(-c2nc3ccccc3s2)cc1Cl', 'U251 CNS', 'TGI', '> 100 µM'),
  ('Cc1cc2c(=O)cc(-c3ccc(C(F)(F)F)cc3)oc2c(C(=O)O)c1C', 'U251 CNS', 'TGI', '> 100 µM'),
  ('NC(N)=NCc1ccc2c(c1)OCO2', 'U251 CNS', 'TGI', '> 100 µM'),
  ('Cc1cc(C(=O)N[C@@H](CCC(=O)O)C(=O)O)sc1CC[C@@H]1CNc2nc(N)[nH]c(=O)c2C1', 'U251 CNS', 'TGI', '> 100 µM'),
  ('CC(O)CCNC(=O)Nc1c(C(F)(F)F)cc(-c2ccccc2)[nH]c1=O (stereo unspecified)', 'U251 CNS', 'TGI', '> 100 µM'),
  ('COc1ccc(N2CCN(CN3CCN(c4ccc(OC)cc4)C3)C2)cc1', 'U251 CNS', 'TGI', '> 100 µM'),
  ('COc1cc(/C=C2\N=C(c3ccccc3)N(c3nc4cc(C)c(C)cc4s3)C2=O)cc(OC)c1OC', 'U251 CNS', 'TGI', '66.1 µM');

What does the data say about its TGI? Entry: C=C(C)C1CC2=C(O1)C(=O)c1ccccc1C2=O (stereo unspecified)
30.2 µM

Input `NC(=O)c1ccc2nc(-c3ccc(C4(N)CCC4)cc3)c(-c3ccccc3)n2n1`
21.5 µM

Also `COc1cc[c]([Sb]([Br])([CH]=C(C)C)([CH]=C(C)C)[CH]=C(C)C)cc1` , if possible.
72.8 µM

Now this one: CS(=O)(=O)N1CC(CCl)c2ccc(NCCN)cc21 (stereo unspecified)
> 100 µM

Please give the result for CC(C)(C)OC(=O)NNC(=O)C1Cc2ccccc2OC1=O (stereo unspecified) too.
> 100 µM

Next compound up: Nc1ccc(OCC(O)N2C(=O)c3ccccc3C2=O)cc1 (stereo unspecified)
> 100 µM

Again, but for `Nc1cc(S(=O)(=O)O)cc2cc(S(=O)(=O)O)c(N=Nc3ccc(-c4ccc(N=Nc5c(S(=O)(=O)O)cc6cc(S(=O)(=O)O)cc(N)c6c5O)cc4)cc3)c(O)c12`
> 100 µM

Can you check `COc1ccc(OC)c(/C=C/C(=O)C(C)(C)C)c1` next?
43.1 µM

----------
Tested on: UO-31 renal
MEASUREMENT_NOTES: NCI tumour cell line growth inhibition, 48 h
EXPERIMENTAL_READOUT: TGI (µM)
Give the quantity in µM, number only.

INSERT INTO assay_data (compound, experimental_readout, readout_number) VALUES
  ('CCOc1ccccc1NC(=O)C(=O)C(C(=O)c1ccc2ccccc2c1)C1OC(=O)c2ccccc21 (stereo not given)', 'TGI', 29.1),
  ('FC(F)(F)c1[nH]ncc1-c1nc2c(N3CCCCC3)cc3[nH]ncc3c2c2c1CCCC2', 'TGI', 3.01),
  ('CC(C)(Cl)C(Br)CCC(CBr)=C(Cl)CCl (mixture of isomers)', 'TGI', 3.96),
  ('COc1cc2cn3c4ccc(O)cc4nc(N)c3c2cc1OC', 'TGI', 2.48);

For the compound shown here, O=C1c2ccccc2C(=O)c2c(NC(=O)C(Cl)CCl)cccc21 (stereo not given) , give the reported TGI.
24.1

Now try `O=C(N[C@@H]1C=CCC[C@@H]1c1ccccc1)OCc1ccccc1` .
36.7

Could you do the same for NC1=NN(c2ccccc2)C(=O)C1/C(=N\NC(=O)c1cc2ccccc2cc1O)C(=O)Nc1nc([N+](=O)[O-])cs1 (stereo not given) , please?
30.3

Lookup `Cc1cc(C)c(S(=O)(=O)N(CCCCCCN)OCCCN)c(C)c1`
43.2

Likewise for C[n+]1c2cc(N)ccc2cc2ccc(N)cc21 (tested in a mixture with another compound) ?
0.598

----------
Tested on: M14 melanoma
MEASUREMENT_NOTES: NCI tumour cell line growth inhibition, 48 h
EXPERIMENTAL_READOUT: GI50

Known GI50 results, listed for orientation:
INSERT INTO measurements (compound, subject_of_test, result) VALUES
  ('COc1cc(OC)cc(-c2ccc(-c3ccc(C(=N)N)s3)s2)c1', 'M14 melanoma', '1100 nM'),
  ('C[C@@H]1[C@H]2[C@H](C=C3[C@@H]4CC[C@H]5Cc6nc7c(nc6C[C@]5(C)[C@H]4C[C@@H](O)[C@@]32C)C[C@@H]2CC[C@H]3C4=C[C@@H]5O[C@@]6(CC[C@](C)(CO)O6)[C@@H](C)[C@@]5(O)[C@@]4(C)[C@H](O)C[C@@H]3[C@@]2(C)C7)O[C@]12CCC(C)(C)O2', 'M14 melanoma', '1220 nM');

Could you tell me which GI50 is on file for `Cc1cc(S(N)(=O)=O)c(S/C(=N\Nc2ccc([N+](=O)[O-])cc2)c2ccc(O)cc2)cc1Cl` ?
2610 nM

Quick one: `Cc1cc(Nc2cc(CN3CCOCC3)c3nc(C)c(Cc4ccc(Cl)cc4F)n3n2)n[nH]1`
1830 nM

Another: `CCOC(=O)/C(=C/c1ccccc1)C(=O)c1ccccc1`
3770 nM

What about this compound? C[n+]1c2cc(N)ccc2cc2ccc(N)cc21 (tested in a mixture with another compound)
1040 nM

Then `COc1ccc2c(O)c(/C=C3\N=Nc4ncccc43)oc2c1C[C@H]1CCNC[C@H]1F` ?
589 nM

Do the same for `O=[N+]([O-])c1cccc(/C=C/c2ccccn2)c1` please
52100 nM

Moving on to the next compound: `FC(F)(F)c1[nH]ncc1-c1nc2c(N3CCCCC3)cc3[nH]ncc3c2c2c1CCCC2`
600 nM

# iterate: `O=C(C[C@@]1(O)C(=O)Nc2c(Cl)ccc(Cl)c21)c1ccc(C2CC2)cc1`
184 nM

Request: COc1cc(/C=C/C(=O)NC[C@]2(O)CCC3C4CCc5cc(O)ccc5C4CCC32C)ccc1O (stereo partly specified)
4990 nM

And for `COc1ccc(-c2nn(-c3ccc(NC(=O)Nc4ccc(Cl)c(Cl)c4)cc3)cc2-c2ccncc2)cc1Cl` ?
1790 nM

----------
Tested on: SNB-75 CNS
MEASUREMENT_NOTES: NCI tumour cell line growth inhibition, 48 h
EXPERIMENTAL_READOUT: TGI

Before answering, review these 10 worked examples.
INSERT INTO assay_data (compound, experimental_readout, result) VALUES
  ('CCOC(=O)c1ccc(NC(=O)O/N=C(/Cl)C(C)C)cc1', 'TGI', '27.4 µM'),
  ('COc1cc(/C=C/C=C2\CCC/C(=C\C=C\c3ccc(O)c(OC)c3)C2=O)ccc1O', 'TGI', '> 100 µM'),
  ('COc1cc(C2=C(C)[C@@H]3CN(CC=C3c3ccc(Cl)cc3)C2)c(S(=O)(=O)O)cc1OC', 'TGI', '> 100 µM'),
  ('COc1cc(/C=C/C(=O)NC[C@]2(O)CCC3C4CCc5cc(O)ccc5C4CCC32C)ccc1O (stereo partly specified)', 'TGI', '> 100 µM'),
  ('CCc1nc(-n2c(CC)nc3ccccc3c2=O)nc(N)c1-c1ccc(Cl)cc1', 'TGI', '> 100 µM'),
  ('CCOC(=O)C12CCSC1C1(C#N)C(C#N)=CC2(N=P(c2ccccc2)(c2ccccc2)c2ccccc2)n2c(=O)n(-c3ccccc3)c(=O)n21 (stereo unspecified)', 'TGI', '> 100 µM'),
  ('COc1ccc2[nH]c3c(C)c4cc[n+](C)cc4c(C)c3c2c1', 'TGI', '801 nM [middle of 4 runs]'),
  ('COc1cc([N+](=O)[O-])c(S(=O)(=O)O)cc1N', 'TGI', '> 100 µM'),
  ('CN(C)Cc1cc(N=Nc2ccccc2Cl)ccc1O', 'TGI', '55.8 µM'),
  ('CCCCCCCC/C=C\CCCCCCCC(=O)OC[C@]1(CO)CCC(=O)O1', 'TGI', '> 100 µM');

Provide the documented TGI with SNB-75 CNS as the system for C=C(C)C1CC2=C(O1)C(=O)c1ccccc1C2=O (stereo unspecified)
31.8 µM
